B1: VPS39 (parent)
chain: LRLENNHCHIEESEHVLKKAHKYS

# Variants of: B1
# Procedure Details: protein stability index of a GFP-peptide fusion (GPS, HEK-293T) (PSI 1-6); higher = more stable;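 note: lentivirally expressed fusions sorted by FACS into six bins by GFP to DsRed ratio, PSI derived from sequencing read proportions per bin multiplied by bin number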
# Setup Conditions: c terminus: a fixed tail appended
Would you kindly list protein stability index for each of these variants?
Response field accepts a number only; no unit should be typed.

The variant identified as `H15Q` registered its protein stability index at 1.98

The variant identified as `V16P` registered its protein stability index at 3.07

The variant identified as `H21P` registered its protein stability index at 1.97
